Entry source: paper PMC7265341

Recorded IC50 by entry
# systemTested: CDK5/CDK5R1 (Homo sapiens)
# Sequence (Q00535 whole entry): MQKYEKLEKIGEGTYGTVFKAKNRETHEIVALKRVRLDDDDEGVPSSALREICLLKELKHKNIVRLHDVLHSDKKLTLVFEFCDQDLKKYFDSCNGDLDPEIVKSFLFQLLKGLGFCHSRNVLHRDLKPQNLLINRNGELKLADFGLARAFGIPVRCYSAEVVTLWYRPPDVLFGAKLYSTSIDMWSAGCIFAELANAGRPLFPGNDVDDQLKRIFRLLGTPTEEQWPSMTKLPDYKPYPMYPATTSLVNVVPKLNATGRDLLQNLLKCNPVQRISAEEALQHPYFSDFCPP
# Sequence (Q15078 whole entry partner): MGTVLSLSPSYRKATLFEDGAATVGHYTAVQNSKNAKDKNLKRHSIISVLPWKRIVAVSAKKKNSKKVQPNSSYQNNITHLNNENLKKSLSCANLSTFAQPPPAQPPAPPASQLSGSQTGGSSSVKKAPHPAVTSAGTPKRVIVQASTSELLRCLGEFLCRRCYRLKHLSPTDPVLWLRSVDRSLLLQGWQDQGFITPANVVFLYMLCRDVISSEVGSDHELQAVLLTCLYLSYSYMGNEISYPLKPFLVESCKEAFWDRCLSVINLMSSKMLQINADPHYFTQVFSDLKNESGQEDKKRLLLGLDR
# testDetails: NanoBRET live-cell target engagement, CDK5-NanoLuc/CDK5R1 in HEK-293
# Type: binding
# setupConditions: live HEK-293, 2 h; mean ± S.E.M. (n=3) or mean (n=2); read-out: IC50 for CDK/cyclin complexes, CDK5/R1

compound	unitOfMeasure	IC50
CN1C/C=C/CCOc2cccc(c2)-c2ccnc(n2)Nc2cccc(c2)C1	nM	180
CC(C)c1cnn2c(NCc3ccccc3-n3cccn3)nc(OC3CCCNC3)nc12 (centres unmarked)	nM	280

====

Measured inhibition at 10 µM values are reported for all entries that follow.
# systemTested: CDK1/Cyclin E1 (Homo sapiens, UniProt P06493)
# Sequence (P06493 whole entry): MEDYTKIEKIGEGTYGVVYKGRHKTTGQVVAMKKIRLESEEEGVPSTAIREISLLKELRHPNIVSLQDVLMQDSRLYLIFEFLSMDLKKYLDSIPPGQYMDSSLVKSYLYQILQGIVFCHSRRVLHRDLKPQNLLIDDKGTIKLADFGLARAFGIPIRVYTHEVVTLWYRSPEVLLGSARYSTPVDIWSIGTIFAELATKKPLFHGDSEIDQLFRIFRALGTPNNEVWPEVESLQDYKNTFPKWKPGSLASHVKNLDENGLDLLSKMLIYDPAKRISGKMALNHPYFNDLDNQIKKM
# Sequence (P24864 whole entry partner): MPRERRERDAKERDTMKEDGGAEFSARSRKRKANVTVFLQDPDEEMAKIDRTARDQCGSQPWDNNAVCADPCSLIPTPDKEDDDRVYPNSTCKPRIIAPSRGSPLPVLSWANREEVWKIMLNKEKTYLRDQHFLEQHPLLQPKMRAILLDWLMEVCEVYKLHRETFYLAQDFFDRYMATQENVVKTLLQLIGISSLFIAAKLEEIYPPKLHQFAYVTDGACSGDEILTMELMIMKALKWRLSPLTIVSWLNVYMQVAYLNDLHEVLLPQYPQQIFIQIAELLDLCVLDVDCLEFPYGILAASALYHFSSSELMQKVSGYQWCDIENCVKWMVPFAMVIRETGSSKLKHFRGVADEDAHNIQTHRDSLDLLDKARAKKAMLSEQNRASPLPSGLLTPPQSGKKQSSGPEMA
# testDetails: NanoBRET live-cell target engagement, CDK1-NanoLuc/Cyclin E1 in HEK-293
# Format: binding
# setupConditions: 10µM; independent experiment 2; read-out: CDK1/E1 Inhibition at 10µM (%)

smilesString	inhibition at 10 µM (%)
CN(C)C/C=C/C(=O)Nc1ccc(C(=O)N2CCC[C@@H](Nc3ncc(Cl)c(-c4c[nH]c5ccccc45)n3)C2)cc1	74.1
CC(C)CC(=O)Nc1[nH]nc2c1CN(C(=O)C1CCN(C)CC1)C2(C)C	70.8
CN1CCN(c2ccc(Nc3ncc4cc5n(c4n3)C3(CCCCC3)CNC5=O)nc2)CC1	-0.0634
CN1C/C=C/CCOc2cccc(c2)-c2ccnc(n2)Nc2cccc(c2)C1	95.8
CC(C)[C@H](CO)Nc1nc(Nc2ccc(C(=O)O)c(Cl)c2)c2ncn(C(C)C)c2n1	24.3
COCCN1CCN(Cc2ccc(-c3n[nH]c4c3C(=O)c3c(NC(=O)NN5CCOCC5)cccc3-4)cc2)CC1	96

====

The reader will find reported IC50 values listed item by item below.
# systemTested: CDK18/Cyclin Y (Homo sapiens)
# Sequence (Q07002 whole entry): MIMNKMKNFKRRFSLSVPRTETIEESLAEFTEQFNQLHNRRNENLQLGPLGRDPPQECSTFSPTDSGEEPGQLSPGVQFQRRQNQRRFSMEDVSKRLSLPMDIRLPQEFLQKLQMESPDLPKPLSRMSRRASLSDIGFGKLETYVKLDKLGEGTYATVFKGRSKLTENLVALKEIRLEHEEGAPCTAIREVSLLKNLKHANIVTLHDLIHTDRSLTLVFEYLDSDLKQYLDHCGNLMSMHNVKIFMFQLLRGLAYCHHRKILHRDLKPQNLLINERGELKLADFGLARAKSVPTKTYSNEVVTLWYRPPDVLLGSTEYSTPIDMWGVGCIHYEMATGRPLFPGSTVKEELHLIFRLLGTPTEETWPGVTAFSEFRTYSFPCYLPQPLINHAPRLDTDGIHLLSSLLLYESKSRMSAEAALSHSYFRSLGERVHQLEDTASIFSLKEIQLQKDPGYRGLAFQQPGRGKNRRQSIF
# Sequence (Q8ND76 whole entry partner): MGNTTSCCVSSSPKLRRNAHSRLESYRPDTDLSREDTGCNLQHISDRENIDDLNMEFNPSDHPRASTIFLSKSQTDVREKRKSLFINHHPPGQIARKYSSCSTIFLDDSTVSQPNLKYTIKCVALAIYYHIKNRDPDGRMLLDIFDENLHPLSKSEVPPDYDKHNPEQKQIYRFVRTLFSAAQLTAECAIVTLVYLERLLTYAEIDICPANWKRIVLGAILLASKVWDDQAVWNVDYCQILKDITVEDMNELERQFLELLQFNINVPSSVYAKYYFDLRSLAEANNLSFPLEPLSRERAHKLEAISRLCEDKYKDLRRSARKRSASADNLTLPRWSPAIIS
# testDetails: NanoBRET live-cell target engagement, CDK18-NanoLuc/Cyclin Y in HEK-293
# Assay type: binding
# setupConditions: CDK18/Y; experiment 1; read-out: IC50
measuredProperty: IC50 (nM)

molecule	numericReadout
CS(=O)(=O)N1CCC(NC(=O)c2[nH]ncc2NC(=O)c2c(Cl)cccc2Cl)CC1 [NVP-LCQ195]	310
CN1CCN(Cc2ccc(NC(=O)Nc3ccc(Oc4ccnc(N)n4)cc3)cc2C(F)(F)F)CC1 [K03861]	144
COc1ccc(F)cc1-c1cc(NC(=O)C2CCCNC2)ncc1Cl (stereo not drawn) [CDK inhibitor 2]	104
CN1CCN(c2ccc(Nc3ncc4cc(C#N)c(=O)n(C5CCCC5)c4n3)cc2)CC1 [ON123300]	283
CC(C)c1c2cc(-c3ccnc(N[C@H]4CC[C@H](NC5CCOCC5)CC4)n3)ccc2nn1C [LY2857785]	204
CC(C)c1cnn2c(NCc3ccccc3-n3cccn3)nc(OC3CCCNC3)nc12 (stereo not drawn) [LDC4297]	177

====

# systemTested: CDK16/Cyclin Y (Homo sapiens)
# Sequence (Q00536 whole entry): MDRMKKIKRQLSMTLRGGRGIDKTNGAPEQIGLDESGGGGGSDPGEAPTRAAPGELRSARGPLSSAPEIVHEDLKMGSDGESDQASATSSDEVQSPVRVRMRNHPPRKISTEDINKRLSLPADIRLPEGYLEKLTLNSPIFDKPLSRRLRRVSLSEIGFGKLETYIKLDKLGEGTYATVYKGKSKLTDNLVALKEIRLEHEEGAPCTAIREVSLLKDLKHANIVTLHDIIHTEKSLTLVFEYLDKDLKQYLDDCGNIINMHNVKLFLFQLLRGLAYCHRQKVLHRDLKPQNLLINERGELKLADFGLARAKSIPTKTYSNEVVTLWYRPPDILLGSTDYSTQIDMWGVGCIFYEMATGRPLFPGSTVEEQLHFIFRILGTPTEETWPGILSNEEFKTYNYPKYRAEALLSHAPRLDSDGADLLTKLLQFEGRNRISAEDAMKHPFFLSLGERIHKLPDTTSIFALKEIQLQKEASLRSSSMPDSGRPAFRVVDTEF
# Sequence (Q8ND76 whole entry partner): as the sequence (Q8ND76 whole entry partner) above
# testDetails: NanoBRET live-cell target engagement, CDK16-NanoLuc/Cyclin Y in HEK-293
# Type: binding
# setupConditions: CDK16/Y; n=3 average ± SEM, n=2 average to 2 significant figures; read-out: IC50 (nM) Average*
Catalogue of IC50 readings, one per entry.
measuredProperty: IC50 (nM)

compound	measuredProperty	numericReadout
CCCCOc1c(C(=O)c2c(F)cc(C)cc2F)c[nH]c2nncc1-2 [BMS-265246]	IC50	50
CC(C)c1cnn2c(NCc3ccccc3)cc(N[C@@H](CO)[C@H](O)CO)nc12 [BS-194]	IC50	630
C[C@H]1CC[C@H](n2c3cnccc3c3cnc(Nc4ccc5c(n4)CCN(C(=O)CO)C5)nc32)CC1 [AMG 925]	IC50	200
CNC1CCN(C(=O)c2ccc(Nc3ncc(F)c(-c4cnc(C)n4C(C)C)n3)cc2)C1 (stereo not shown) [AZD5597]	IC50	13
